Consider the following compounds; for each one, report its IC50.
Biological target: USP28 (His-tagged USP28-FL-mammalian) (Homo sapiens, UniProt Q96RU2)
Construct: Expression of USP28 (1-1077)-TEV-6*His (pTT5 vector); made in house; host or cells: Expi293f cells (pTT5 vector)
Sequence (Q96RU2 whole entry): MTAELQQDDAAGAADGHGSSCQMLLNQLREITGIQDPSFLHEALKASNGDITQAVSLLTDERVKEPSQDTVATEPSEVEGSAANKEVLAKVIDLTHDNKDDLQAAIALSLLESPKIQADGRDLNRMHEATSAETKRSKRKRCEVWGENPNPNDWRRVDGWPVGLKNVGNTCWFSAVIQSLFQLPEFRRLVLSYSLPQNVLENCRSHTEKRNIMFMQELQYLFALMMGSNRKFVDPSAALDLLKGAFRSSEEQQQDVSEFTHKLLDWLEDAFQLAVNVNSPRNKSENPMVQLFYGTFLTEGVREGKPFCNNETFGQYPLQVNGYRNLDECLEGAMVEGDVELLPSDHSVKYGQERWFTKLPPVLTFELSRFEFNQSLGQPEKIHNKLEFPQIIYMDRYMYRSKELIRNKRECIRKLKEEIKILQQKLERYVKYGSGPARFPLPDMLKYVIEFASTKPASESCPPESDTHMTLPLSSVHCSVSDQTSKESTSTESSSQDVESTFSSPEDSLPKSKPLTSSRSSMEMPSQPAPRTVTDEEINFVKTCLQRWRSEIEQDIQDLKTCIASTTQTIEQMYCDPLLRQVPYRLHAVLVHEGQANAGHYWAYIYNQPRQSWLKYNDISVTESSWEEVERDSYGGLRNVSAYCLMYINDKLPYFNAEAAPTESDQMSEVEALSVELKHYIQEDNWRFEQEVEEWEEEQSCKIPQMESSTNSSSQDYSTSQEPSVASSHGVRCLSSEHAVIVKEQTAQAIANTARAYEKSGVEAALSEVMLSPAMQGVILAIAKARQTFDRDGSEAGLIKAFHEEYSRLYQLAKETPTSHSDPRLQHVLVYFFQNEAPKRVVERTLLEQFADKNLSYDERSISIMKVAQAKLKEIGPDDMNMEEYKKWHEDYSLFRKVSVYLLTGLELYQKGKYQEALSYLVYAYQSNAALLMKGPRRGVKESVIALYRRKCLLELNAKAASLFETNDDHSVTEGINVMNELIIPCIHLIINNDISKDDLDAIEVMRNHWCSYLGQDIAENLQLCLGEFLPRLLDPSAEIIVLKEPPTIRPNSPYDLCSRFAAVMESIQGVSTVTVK
Experiment: Ubiquitin-Rhodamine 110 Assay for USP28 Activity, Example A-1(a)
Type: biochemical
Conditions: Ubiquitin-Rhodamine 110 assay, Example A-1(a); read-out: USP28 A-1(a) IC50 range

Data request: What value of IC50 on USP28 (His-tagged USP28-FL-mammalian) (Homo sapiens, UniProt Q96RU2) does COC[C@@H]1CN(c2ccc3c(n2)CC[C@H](NC(=O)c2sc4nc(C)cnc4c2N)C3)C[C@@H]1N [Example 298] have?
Data returned: 200 to 2000 nM

Data request: What value of IC50 on USP28 (His-tagged USP28-FL-mammalian) (Homo sapiens, UniProt Q96RU2) does Cc1ccc2c(N)c(C(=O)N[C@H]3CCc4nc(N5CCNCC5)cc(F)c4C3)sc2n1 [Example 23-17] have?
Data returned: 1 to 50 nM

Data request: What value of IC50 on USP28 (His-tagged USP28-FL-mammalian) (Homo sapiens, UniProt Q96RU2) does Cc1ccc2c(N)c(C(=O)N[C@H]3CCc4c(ccc(N5CC6CNCC(C5)O6)c4F)C3)sc2n1 [Example 99] have?
Data returned: 1 to 50 nM

Data request: What value of IC50 on USP28 (His-tagged USP28-FL-mammalian) (Homo sapiens, UniProt Q96RU2) does Cc1cc(C)c2c(N)c(C(=O)N[C@H]3COc4cc(N5CC[C@@H]6CNC[C@@H]65)ccc4C3)sc2n1 [Example 227] have?
Data returned: 1 to 50 nM

Data request: What value of IC50 on USP28 (His-tagged USP28-FL-mammalian) (Homo sapiens, UniProt Q96RU2) does Cc1ccc2c(N)c(C(=O)N[C@H]3COc4cc([C@H]5CCNC[C@@H]5F)ccc4C3)sc2n1 [Example 80] have?
Data returned: 1 to 50 nM

Data request: What value of IC50 on USP28 (His-tagged USP28-FL-mammalian) (Homo sapiens, UniProt Q96RU2) does CCO[C@H]1CN(c2ccc3c(n2)CC[C@H](NC(=O)c2sc4nc(C)ccc4c2N)C3)C[C@@H]1N [Example 142] have?
Data returned: 200 to 2000 nM

Data request: What value of IC50 on USP28 (His-tagged USP28-FL-mammalian) (Homo sapiens, UniProt Q96RU2) does Cc1ccc2c(N)c(C(=O)N[C@@H]3COc4cc(N5CCNCC5)cc(Cl)c4C3)sc2n1 [Example 49] have?
Data returned: 200 to 2000 nM

Data request: What value of IC50 on USP28 (His-tagged USP28-FL-mammalian) (Homo sapiens, UniProt Q96RU2) does Cc1ccc2c(N)c(C(=O)N[C@H]3CCc4nc(N5C[C@H](C(F)F)[C@@H](N)C5)ccc4C3)sc2n1 [Example 347] have?
Data returned: 50 to 200 nM

Data request: What value of IC50 on USP28 (His-tagged USP28-FL-mammalian) (Homo sapiens, UniProt Q96RU2) does COC[C@@]1(N)CCN(c2ccc3c(n2)CC[C@H](NC(=O)c2sc4nc(C)ccc4c2N)C3)C1 [Example 388] have?
Data returned: 50 to 200 nM

Data request: What value of IC50 on USP28 (His-tagged USP28-FL-mammalian) (Homo sapiens, UniProt Q96RU2) does CN[C@H]1CN(c2ccc3c(c2)OC[C@H](NC(=O)c2sc4nc(C)ccc4c2N)C3)C[C@@H]1O [Example 350] have?
Data returned: 50 to 200 nM

Data request: What value of IC50 on USP28 (His-tagged USP28-FL-mammalian) (Homo sapiens, UniProt Q96RU2) does COC[C@H]1CN(c2ccc3c(c2)OC[C@H](NC(=O)c2sc4nc(C)ccc4c2N)C3)C[C@@H]1N [Example 164] have?
Data returned: 1 to 50 nM

Data request: What value of IC50 on USP28 (His-tagged USP28-FL-mammalian) (Homo sapiens, UniProt Q96RU2) does CCn1ccc2cc(C(=O)N[C@@H]3CCc4cc(N5CC6CCC(C5)N6)ccc4C3)nnc21 (single isomer, unassigned) [Example 11-23] have?
Data returned: 200 to 2000 nM

Data request: What value of IC50 on USP28 (His-tagged USP28-FL-mammalian) (Homo sapiens, UniProt Q96RU2) does Cc1nc2sc(C(=O)N[C@H]3COc4cc(N5CC6CCC(C5)N6)c(F)c(F)c4C3)c(N)c2s1 [Example 108] have?
Data returned: 1 to 50 nM

Data request: What value of IC50 on USP28 (His-tagged USP28-FL-mammalian) (Homo sapiens, UniProt Q96RU2) does Cc1ccc2c(N)c(C(=O)N[C@H]3COc4cc(N5C[C@@H](N)CC56COC6)ccc4C3)sc2n1 (single isomer, unassigned) [Example 352] have?
Data returned: 1 to 50 nM

Data request: What value of IC50 on USP28 (His-tagged USP28-FL-mammalian) (Homo sapiens, UniProt Q96RU2) does Cc1cnc2c(N)c(C(=O)N[C@H]3CCc4cc(N5CCCNCC5)ccc4C3)sc2n1 [Example 455] have?
Data returned: 50 to 200 nM

Data request: What value of IC50 on USP28 (His-tagged USP28-FL-mammalian) (Homo sapiens, UniProt Q96RU2) does Cc1ccc2c(N)c(C(=O)N[C@H]3CCc4nc(N5C[C@@H](N)[C@@H](OC(C)(F)F)C5)ccc4C3)sc2n1 [Example 358] have?
Data returned: 200 to 2000 nM

Data request: What value of IC50 on USP28 (His-tagged USP28-FL-mammalian) (Homo sapiens, UniProt Q96RU2) does COC[C@H]1CNCCN1c1ccc2c(c1)OC[C@H](NC(=O)c1sc3nc(C)ccc3c1N)C2 [Example 156] have?
Data returned: 50 to 200 nM

Data request: What value of IC50 on USP28 (His-tagged USP28-FL-mammalian) (Homo sapiens, UniProt Q96RU2) does Cc1ccc2c(N)c(C(=O)N[C@H]3COc4cc(N5CCO[C@@H]6CNC[C@@H]65)ccc4C3)sc2n1 [Example 185] have?
Data returned: 1 to 50 nM

Data request: What value of IC50 on USP28 (His-tagged USP28-FL-mammalian) (Homo sapiens, UniProt Q96RU2) does CO[C@@H]1CN(c2cc(F)c3c(c2F)OC[C@H](NC(=O)c2sc4nc(C)ccc4c2N)C3)C[C@H]1N [Example 86] have?
Data returned: 1 to 50 nM

Data request: What value of IC50 on USP28 (His-tagged USP28-FL-mammalian) (Homo sapiens, UniProt Q96RU2) does CO[C@]12CCN[C@@H]1CN(c1ccc3c(n1)CC[C@H](NC(=O)c1sc4nc(C)ccc4c1N)C3)C2 [Example 435] have?
Data returned: 50 to 200 nM

Data request: What value of IC50 on USP28 (His-tagged USP28-FL-mammalian) (Homo sapiens, UniProt Q96RU2) does COC[C@]1(N)CCN(c2ccc3c(n2)CC[C@H](NC(=O)c2sc4nc(C)ccc4c2N)C3)C1 [Example 389] have?
Data returned: 50 to 200 nM

Data request: What value of IC50 on USP28 (His-tagged USP28-FL-mammalian) (Homo sapiens, UniProt Q96RU2) does CO[C@H]1CN(c2ccc3c(n2)OC[C@H](NC(=O)c2sc4nc(C)cc(C)c4c2N)C3)C[C@@H]1N [Example 286] have?
Data returned: 50 to 200 nM

Data request: What value of IC50 on USP28 (His-tagged USP28-FL-mammalian) (Homo sapiens, UniProt Q96RU2) does O=C(N[C@H]1COc2c(F)c(N3CC4CCC(C3)N4)cc(F)c2C1)c1cnc2c(c1)[C@@H]1C[C@@H]1CN2 [Example 89] have?
Data returned: 1 to 50 nM

Data request: What value of IC50 on USP28 (His-tagged USP28-FL-mammalian) (Homo sapiens, UniProt Q96RU2) does Cc1ccc2c(N)c(C(=O)N[C@H]3COc4cc(N5CC[C@H]6CC[C@@H](N)C[C@H]65)ccc4C3)sc2n1 [Example 231] have?
Data returned: 1 to 50 nM

Data request: What value of IC50 on USP28 (His-tagged USP28-FL-mammalian) (Homo sapiens, UniProt Q96RU2) does COC[C@@H]1C[C@@H](N)CN1c1ccc2c(c1)OC[C@H](NC(=O)c1sc3nc(C)ccc3c1N)C2 [Example 260] have?
Data returned: 1 to 50 nM

Data request: What value of IC50 on USP28 (His-tagged USP28-FL-mammalian) (Homo sapiens, UniProt Q96RU2) does Cc1ccc2c(N)c(C(=O)N[C@H]3COc4cc(N5C[C@@H](N)[C@]6(CCCO6)C5)ccc4C3)sc2n1 [Example 309] have?
Data returned: 1 to 50 nM

Data request: What value of IC50 on USP28 (His-tagged USP28-FL-mammalian) (Homo sapiens, UniProt Q96RU2) does Cc1ccc2c(N)c(C(=O)N[C@H]3COc4cc(N5C[C@@H](CF)[C@@H](N)C5)ccc4C3)sc2n1 [Example 423] have?
Data returned: 1 to 50 nM

Data request: What value of IC50 on USP28 (His-tagged USP28-FL-mammalian) (Homo sapiens, UniProt Q96RU2) does Cc1cnc2c(N)c(C(=O)N[C@H]3CCc4nc(N5C[C@@H](N)C6(COC6)C5)ccc4C3)sc2n1 [Example 366] have?
Data returned: 200 to 2000 nM

Data request: What value of IC50 on USP28 (His-tagged USP28-FL-mammalian) (Homo sapiens, UniProt Q96RU2) does Cc1ccc2c(N)c(C(=O)N[C@H]3COc4cc(N5CC[C@@H](N)C5)ccc4C3)sc2n1 [Example 288] have?
Data returned: 1 to 50 nM
